Molecular target: alpha-glucosidase from Saccharomyces cerevisiae (Baker's yeast) (Saccharomyces cerevisiae, UniProt P53341)
Sequence (P53341 whole entry): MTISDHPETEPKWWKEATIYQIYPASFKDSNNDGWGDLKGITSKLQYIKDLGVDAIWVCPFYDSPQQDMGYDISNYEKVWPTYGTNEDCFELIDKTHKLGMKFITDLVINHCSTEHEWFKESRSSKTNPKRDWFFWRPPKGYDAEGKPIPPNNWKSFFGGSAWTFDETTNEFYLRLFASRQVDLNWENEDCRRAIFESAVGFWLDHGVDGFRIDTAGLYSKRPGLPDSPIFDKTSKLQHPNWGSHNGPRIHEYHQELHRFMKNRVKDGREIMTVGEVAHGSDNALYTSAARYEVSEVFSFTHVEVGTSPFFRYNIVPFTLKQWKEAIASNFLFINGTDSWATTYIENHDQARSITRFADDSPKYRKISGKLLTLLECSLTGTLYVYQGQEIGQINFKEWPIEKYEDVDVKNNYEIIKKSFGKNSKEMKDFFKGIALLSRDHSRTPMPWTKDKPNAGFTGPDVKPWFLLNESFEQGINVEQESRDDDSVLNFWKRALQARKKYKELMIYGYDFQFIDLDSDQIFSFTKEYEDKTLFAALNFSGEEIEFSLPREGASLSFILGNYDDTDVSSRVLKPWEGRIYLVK
Experiment: In vitro α-glucosidase inhibitory activity
Format: biochemical
pIC50: −log10 of the molar value.
Binary classification by pIC50, with 5 as an inclusive lower bound for t; all other cases are f.

>  <Compound>
CCCCCCSc1nc2ccccc2n1CC(=O)NN1C(=O)CSC1c1ccc(F)cc1 (stereo not drawn)

>  <Class Assignment>
f

$$$$
>  <Compound>
CCCCCCSc1nc2ccccc2n1CC(=O)NN1C(=O)CSC1c1cccs1 (stereo not drawn)

>  <Class Assignment>
f

$$$$
>  <Compound>
CCCCCCSc1nc2ccccc2n1CC(=O)NN1C(=O)CSC1c1ccc(C)o1 (stereo not drawn)

>  <Class Assignment>
f

$$$$
>  <Compound>
CCCCCCSc1nc2ccccc2n1CC(=O)NN1C(=O)CSC1c1ccc(Cl)cc1Cl (stereo not drawn)

>  <Class Assignment>
f

$$$$
>  <Compound>
CCCCCCSc1nc2ccccc2n1CC(=O)NN1C(=O)CSC1c1cccc(OC)c1O (stereo not drawn)

>  <Class Assignment>
f

$$$$
>  <Compound>
CCCCCCSc1nc2ccccc2n1CC(=O)NN1C(=O)CSC1c1ccc(C)cc1 (stereo not drawn)

>  <Class Assignment>
f

$$$$
>  <Compound>
CCCCCCSc1nc2ccccc2n1CC(=O)NN1C(=O)CSC1c1ccc2ccccc2c1 (stereo not drawn)

>  <Class Assignment>
f

$$$$
>  <Compound>
CCCCCCSc1nc2ccccc2n1CC(=O)NN1C(=O)CSC1c1ccc([N+](=O)[O-])cc1 (stereo not drawn)

>  <Class Assignment>
t

$$$$
>  <Compound>
CCCCCCSc1nc2ccccc2n1CC(=O)NN1C(=O)CSC1c1ccc(C=O)cc1 (stereo not drawn)

>  <Class Assignment>
t

$$$$
>  <Compound>
CCCCCCSc1nc2ccccc2n1CC(=O)NN1C(=O)CSC1c1ccccc1OC (stereo not drawn)

>  <Class Assignment>
f

$$$$
>  <Compound>
CCCCCCSc1nc2ccccc2n1CC(=O)NN1C(=O)CSC1c1ccc(OC)cc1 (stereo not drawn)

>  <Class Assignment>
f

$$$$
